Each entry below carries its reported inhibition.
Test target: Tyrosine-protein phosphatase non-receptor type 1 (Homo sapiens) (UniProt P18031)
Sequence (whole entry): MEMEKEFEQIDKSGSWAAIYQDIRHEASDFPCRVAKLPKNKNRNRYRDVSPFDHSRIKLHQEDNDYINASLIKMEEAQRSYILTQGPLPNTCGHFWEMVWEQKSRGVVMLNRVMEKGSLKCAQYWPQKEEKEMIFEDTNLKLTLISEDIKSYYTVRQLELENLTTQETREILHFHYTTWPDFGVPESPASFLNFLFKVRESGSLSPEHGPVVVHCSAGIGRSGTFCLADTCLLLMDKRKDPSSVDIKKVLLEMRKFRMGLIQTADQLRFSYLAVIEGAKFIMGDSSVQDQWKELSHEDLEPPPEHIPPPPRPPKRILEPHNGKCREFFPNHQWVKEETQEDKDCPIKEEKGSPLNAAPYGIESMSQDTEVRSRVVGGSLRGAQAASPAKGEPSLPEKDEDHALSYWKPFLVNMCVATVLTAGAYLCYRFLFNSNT
Experiment: Inhibition of recombinant human PTP1B expressed in Escherichia coli expression system using pNPP as substrate at 10 uM preincubated for 30 mins followed by substrate addition by […]
Respond numerically; units are % and should not be typed.

Solved cases below.
• Nc1c(C(=O)O)cnn1-c1ccc(CC(C(=O)c2ccc(Cl)cc2)c2ccc(F)cc2)cc1 (stereo unspecified) = 18.8
• COc1ccc(CN(Cc2ccc(C)cc2)Cc2ccc(-n3ncc(C(=O)O)c3N)cc2)cc1 = 5
• Nc1c(C(=O)O)cnn1-c1ccc(CC(C(=O)c2ccccc2)c2ccc(F)cc2)cc1 (stereo unspecified) = 19
• COc1ccc(C(Cc2ccc(-n3ncc(C(=O)O)c3N)cc2)c2nc(-c3ccc(Cl)cc3)no2)cc1 (stereo unspecified) = 33.7
• COc1ccc(CN(Cc2ccc(F)cc2)Cc2ccc(-n3ncc(C(=O)O)c3N)cc2)cc1 = 21.6

Record Nc1c(C(=O)O)cnn1-c1ccc(CC(C(=O)c2ccccc2)c2ccccc2)cc1 (stereo unspecified) , field inhibition: 9.6

Record Nc1c(C(=O)O)cnn1-c1ccc(CC(C(=O)c2ccc(Cl)cc2)c2ccc(F)c(F)c2)cc1 (stereo unspecified) , field inhibition: 16.2

Record Nc1c(C(=O)O)cnn1-c1ccc(CC(C(=O)c2ccc(F)cc2)c2ccc(F)cc2)cc1 (stereo unspecified) , field inhibition: 0.8

Record Nc1c(C(=O)O)cnn1-c1ccc(CC(c2ccccc2)c2nc(-c3ccccc3)no2)cc1 (stereo unspecified) , field inhibition: 12.2

Record COc1ccc(C(=O)C(Cc2ccc(-n3ncc(C(=O)O)c3N)cc2)c2ccc(OC)cc2)cc1 (stereo unspecified) , field inhibition: 4.8

Record Nc1c(C(=O)O)cnn1-c1ccc(CC(c2ccc(F)cc2)c2nc(-c3ccc(Cl)cc3)no2)cc1 (stereo unspecified) , field inhibition: 30.8

###

Test target: Tyrosine-protein phosphatase non-receptor type 1 (Homo sapiens) (UniProt P18031)
Experiment: Inhibition of recombinant human PTP1B expressed in Escherichia coli expression system using pNPP as substrate at 100 uM preincubated for 30 mins followed by substrate addition by […]
Decide by inhibition: equal to or exceeding 80% means Fulfilled, less means Not fulfilled.

// known answers, use as guide
* COc1ccc(CN(Cc2ccc(C)cc2)Cc2ccc(-n3ncc(C(=O)O)c3N)cc2)cc1 | Not fulfilled
* Nc1c(C(=O)O)cnn1-c1ccc(CN(Cc2ccc(Cl)cc2)Cc2ccc(F)c(F)c2)cc1 | Fulfilled
* Nc1c(C(=O)O)cnn1-c1ccc(CC(c2ccc(F)cc2)c2nc(-c3ccc(Cl)cc3)no2)cc1 (stereo not given) | Fulfilled
* Nc1c(C(=O)O)cnn1-c1ccc(CC(C(=O)c2ccccc2)c2ccc(F)c(F)c2)cc1 (stereo not given) | Not fulfilled
* Nc1c(C(=O)O)cnn1-c1ccc(CC(C(=O)c2ccccc2)c2ccccc2)cc1 (stereo not given) | Not fulfilled
* Nc1c(C(=O)O)cnn1-c1ccc(CC(C(=O)c2ccccc2)c2ccc(F)cc2)cc1 (stereo not given) | Not fulfilled
* Nc1c(C(=O)O)cnn1-c1ccc(CN(Cc2ccc(F)cc2)Cc2ccc(F)cc2)cc1 | Fulfilled
* COc1ccc(C(Cc2ccc(-n3ncc(C(=O)O)c3N)cc2)c2nc(-c3cccc(F)c3)no2)cc1 (stereo not given) | Fulfilled

Let's switch to this compound now.
### Prompt Please check the record COc1ccc(-c2noc(C(Cc3ccc(-n4ncc(C(=O)O)c4N)cc3)c3ccc(F)cc3)n2)cc1 (stereo not given) and state if its inhibition is at or above 80%.
### Response Fulfilled
